measured.target: (UniProt P04816+P0AD96)
Construct: gene livJ; native chromosomal ABC importer in whole cells; other candidate importers deleted
Sequence (P22731 whole entry): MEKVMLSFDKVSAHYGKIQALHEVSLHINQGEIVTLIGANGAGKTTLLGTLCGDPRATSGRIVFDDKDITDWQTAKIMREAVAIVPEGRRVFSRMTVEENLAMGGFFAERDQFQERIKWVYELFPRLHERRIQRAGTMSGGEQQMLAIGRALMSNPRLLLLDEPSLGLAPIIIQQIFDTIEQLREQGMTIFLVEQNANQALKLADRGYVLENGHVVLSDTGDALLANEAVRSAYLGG
Sequence (P0AEX7 whole entry, further chain): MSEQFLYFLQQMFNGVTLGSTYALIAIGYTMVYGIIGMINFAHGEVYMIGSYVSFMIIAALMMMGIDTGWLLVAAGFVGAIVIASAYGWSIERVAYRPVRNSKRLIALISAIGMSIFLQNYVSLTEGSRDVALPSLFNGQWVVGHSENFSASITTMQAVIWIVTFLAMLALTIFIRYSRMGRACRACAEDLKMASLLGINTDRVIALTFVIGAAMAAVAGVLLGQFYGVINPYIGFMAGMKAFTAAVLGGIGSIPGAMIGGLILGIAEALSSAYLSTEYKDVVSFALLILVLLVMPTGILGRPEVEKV
Sequence (P04816 24-369): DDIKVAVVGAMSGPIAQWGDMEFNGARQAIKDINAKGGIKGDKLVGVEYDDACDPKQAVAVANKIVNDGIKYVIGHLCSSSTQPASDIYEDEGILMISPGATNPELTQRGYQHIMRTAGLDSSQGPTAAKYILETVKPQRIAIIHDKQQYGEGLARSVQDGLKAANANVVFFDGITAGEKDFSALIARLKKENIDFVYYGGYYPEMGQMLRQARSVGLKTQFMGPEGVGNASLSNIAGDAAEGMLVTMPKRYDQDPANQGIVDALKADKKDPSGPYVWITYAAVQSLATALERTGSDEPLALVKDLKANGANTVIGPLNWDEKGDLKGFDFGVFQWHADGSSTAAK
Sequence (P22729 whole entry, further chain): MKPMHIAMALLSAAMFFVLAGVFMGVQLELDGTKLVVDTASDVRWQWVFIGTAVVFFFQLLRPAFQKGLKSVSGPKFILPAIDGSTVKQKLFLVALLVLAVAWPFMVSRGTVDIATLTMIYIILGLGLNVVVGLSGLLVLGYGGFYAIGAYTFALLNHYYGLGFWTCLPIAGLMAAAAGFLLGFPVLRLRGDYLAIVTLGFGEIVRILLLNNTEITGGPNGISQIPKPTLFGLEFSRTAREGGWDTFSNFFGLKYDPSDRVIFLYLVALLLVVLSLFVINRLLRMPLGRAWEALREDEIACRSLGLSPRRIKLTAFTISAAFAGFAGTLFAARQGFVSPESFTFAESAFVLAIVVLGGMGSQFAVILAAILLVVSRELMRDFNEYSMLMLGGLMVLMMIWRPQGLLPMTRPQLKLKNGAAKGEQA
Sequence (P0A9S7 whole entry, further chain): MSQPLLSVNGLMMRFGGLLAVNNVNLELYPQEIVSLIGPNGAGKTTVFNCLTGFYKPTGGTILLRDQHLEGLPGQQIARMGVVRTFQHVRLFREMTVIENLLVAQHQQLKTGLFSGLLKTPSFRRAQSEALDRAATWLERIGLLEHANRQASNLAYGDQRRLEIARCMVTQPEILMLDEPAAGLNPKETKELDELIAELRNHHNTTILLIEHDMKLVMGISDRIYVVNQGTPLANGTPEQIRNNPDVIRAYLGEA
Sequence (P0AD96 24-367): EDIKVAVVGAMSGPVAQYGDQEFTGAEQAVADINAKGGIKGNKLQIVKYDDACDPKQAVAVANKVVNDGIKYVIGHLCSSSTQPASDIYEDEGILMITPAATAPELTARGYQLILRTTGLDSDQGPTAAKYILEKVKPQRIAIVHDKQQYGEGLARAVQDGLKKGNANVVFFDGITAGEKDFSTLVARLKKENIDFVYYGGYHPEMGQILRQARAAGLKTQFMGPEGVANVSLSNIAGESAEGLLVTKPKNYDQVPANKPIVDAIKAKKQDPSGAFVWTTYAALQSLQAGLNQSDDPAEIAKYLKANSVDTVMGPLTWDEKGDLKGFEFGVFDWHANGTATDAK
measurement.protocol: inhibition of […]leucine uptake into whole cells, filtration
Format: cell-based, Escherichia coli
condition: read-out: 50% inhibition
reported.property: IC50

molecule N[C@@H](CS)C(=O)O , IC50 observed: ~400 µM
